Source: ChEMBL document CHEMBL4371094

- experimental_system: Mucosa-associated lymphoid tissue lymphoma translocation protein 1 (Homo sapiens)
- Sequence (Q9UDY8 whole entry): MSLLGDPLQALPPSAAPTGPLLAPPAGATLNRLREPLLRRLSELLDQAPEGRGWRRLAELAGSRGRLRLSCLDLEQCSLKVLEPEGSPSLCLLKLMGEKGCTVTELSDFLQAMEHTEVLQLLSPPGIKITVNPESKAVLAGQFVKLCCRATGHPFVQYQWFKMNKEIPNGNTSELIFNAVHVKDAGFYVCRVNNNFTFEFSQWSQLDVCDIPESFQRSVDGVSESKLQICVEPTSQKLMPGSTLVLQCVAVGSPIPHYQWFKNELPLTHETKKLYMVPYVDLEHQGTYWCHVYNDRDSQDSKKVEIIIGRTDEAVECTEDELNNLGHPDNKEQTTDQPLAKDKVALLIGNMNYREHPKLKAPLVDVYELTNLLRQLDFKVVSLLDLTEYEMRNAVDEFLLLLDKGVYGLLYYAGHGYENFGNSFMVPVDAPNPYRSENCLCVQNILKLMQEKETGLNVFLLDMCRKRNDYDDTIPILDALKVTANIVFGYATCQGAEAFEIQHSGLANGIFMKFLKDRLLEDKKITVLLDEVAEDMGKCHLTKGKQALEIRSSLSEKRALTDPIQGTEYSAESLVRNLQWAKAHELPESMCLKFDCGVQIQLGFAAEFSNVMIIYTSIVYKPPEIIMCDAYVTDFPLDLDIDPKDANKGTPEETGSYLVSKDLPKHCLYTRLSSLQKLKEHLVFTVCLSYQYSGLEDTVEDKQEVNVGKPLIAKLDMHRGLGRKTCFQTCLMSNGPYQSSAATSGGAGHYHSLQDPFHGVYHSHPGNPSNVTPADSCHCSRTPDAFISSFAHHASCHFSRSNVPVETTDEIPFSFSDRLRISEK
- assay_method_text: Inhibition of full-length human GST-tagged MALT1 isoform A (824 residues) expressed in Escherichia coli using Ac-LRSR-MCA as substrate after 1 hr by fluorescence assay
IC50 values for the molecules below.
Please make sure the unit comes right after the number.

Worked cases, answers included:
>  <smiles_entry>
COC(=O)C1=CC(C)=COc2oc3cccc(O)c3c(=O)c21

>  <experimental_system>
Mucosa-associated lymphoid tissue lymphoma translocation protein 1 (Homo sapiens)

>  <IC50>
32.1 µM

$$$$
>  <smiles_entry>
COC(=O)C1=CC=COc2oc3cc(C)cc(O)c3c(=O)c21

>  <experimental_system>
Mucosa-associated lymphoid tissue lymphoma translocation protein 1 (Homo sapiens)

>  <IC50>
50.9 µM

$$$$

# IC50 lookup, item `CC(C)[C@H](NC(=O)OCc1ccccc1)C(=O)N[C@@H](CCCNC(=N)N)C(=O)N1CCC[C@H]1C(=O)N[C@@H](CCCNC(=N)N)C(=O)CF`
0.016 µM
